target: GABA-A receptor; alpha-1/beta-2/gamma-2 (Homo sapiens, UniProt P14867+P18507+P47870); assay: Direct activation of human Gamma-aminobutyric acid A receptor alpha-1-beta-2-gamma-2; type: protein-complex assay
Sequence (P14867 whole entry): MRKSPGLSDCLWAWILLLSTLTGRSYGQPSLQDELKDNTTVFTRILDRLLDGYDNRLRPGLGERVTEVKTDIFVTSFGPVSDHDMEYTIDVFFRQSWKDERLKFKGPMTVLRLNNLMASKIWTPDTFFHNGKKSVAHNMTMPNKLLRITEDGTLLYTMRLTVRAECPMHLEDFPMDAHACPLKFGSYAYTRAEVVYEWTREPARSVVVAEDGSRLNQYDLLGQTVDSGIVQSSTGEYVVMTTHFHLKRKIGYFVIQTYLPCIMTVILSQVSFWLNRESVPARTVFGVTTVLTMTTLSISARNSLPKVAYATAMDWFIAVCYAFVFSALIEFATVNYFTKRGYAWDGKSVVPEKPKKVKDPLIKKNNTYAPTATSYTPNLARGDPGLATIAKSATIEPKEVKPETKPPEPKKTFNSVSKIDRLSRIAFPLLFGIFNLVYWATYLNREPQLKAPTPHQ
Sequence (P47870 whole entry): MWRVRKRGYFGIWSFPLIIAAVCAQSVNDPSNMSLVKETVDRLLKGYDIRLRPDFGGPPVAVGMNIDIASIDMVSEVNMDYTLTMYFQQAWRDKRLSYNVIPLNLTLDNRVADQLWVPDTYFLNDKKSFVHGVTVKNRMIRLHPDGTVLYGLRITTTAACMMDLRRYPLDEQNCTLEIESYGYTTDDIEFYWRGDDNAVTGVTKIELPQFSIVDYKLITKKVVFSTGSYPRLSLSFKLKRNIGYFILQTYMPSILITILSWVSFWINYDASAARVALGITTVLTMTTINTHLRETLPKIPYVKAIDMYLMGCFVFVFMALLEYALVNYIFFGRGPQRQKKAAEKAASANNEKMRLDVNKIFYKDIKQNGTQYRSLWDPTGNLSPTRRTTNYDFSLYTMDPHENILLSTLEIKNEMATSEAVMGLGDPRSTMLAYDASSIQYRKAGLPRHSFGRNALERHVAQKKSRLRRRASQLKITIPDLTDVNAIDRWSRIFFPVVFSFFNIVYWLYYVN
Sequence (P18507 whole entry): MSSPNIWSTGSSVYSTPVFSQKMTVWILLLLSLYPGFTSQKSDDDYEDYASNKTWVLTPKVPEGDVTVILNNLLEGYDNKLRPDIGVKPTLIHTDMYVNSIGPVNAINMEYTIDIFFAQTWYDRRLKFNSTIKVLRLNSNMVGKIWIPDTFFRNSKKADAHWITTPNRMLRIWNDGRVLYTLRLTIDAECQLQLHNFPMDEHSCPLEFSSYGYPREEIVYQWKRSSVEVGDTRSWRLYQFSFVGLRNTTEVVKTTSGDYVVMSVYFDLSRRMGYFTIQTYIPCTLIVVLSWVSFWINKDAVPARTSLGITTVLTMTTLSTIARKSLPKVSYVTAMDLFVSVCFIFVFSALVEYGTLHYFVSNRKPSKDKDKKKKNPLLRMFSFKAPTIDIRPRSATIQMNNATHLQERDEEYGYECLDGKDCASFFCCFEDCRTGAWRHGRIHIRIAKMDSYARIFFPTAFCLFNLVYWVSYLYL
readout-kind: EC50 (µM)

| entry-smiles | unit-of-measurement | observed |
| --- | --- | --- |
| CC(C)c1cc(I)cc(C(C)C)c1O | µM | 31.6 |
| CC(C)(C)c1cc(O)cc(C(C)(C)C)c1 | µM | 501 |
| CCc1cccc(CC)c1N=C=S | µM | 316 |
| CCc1cccc(CC)c1N=C=O | µM | 251 |
| CC(C)Cc1cccc(CC(C)C)c1O | µM | 20 |
| CCc1cccc(CC)c1O | µM | 126 |
| CCc1cccc(CC)c1Br | µM | 126 |
| CC(C)c1cccc(C(C)C)c1O | µM | 10 |
| CC(C)c1cc(O)c(O)c(C(C)C)c1 | µM | 200 |
| Cc1cccc(C(C)(C)C)c1O | µM | 20 |
| CC(C)c1ccccc1O | µM | 158 |
| Cc1cccc(C)c1O | µM | 200 |

----------
List of pEC50 values.
molecular target: GABA-A receptor; alpha-1/beta-2/gamma-2 (Homo sapiens, UniProt P14867+P18507+P47870); assay: Potentiation of GABA responses at human Gamma-aminobutyric acid A receptor alpha-1-beta-2-gamma-2; format: protein-complex assay
pEC50: −log10 of the molar value.

| entry-smiles | system-under-test | pEC50 |
| --- | --- | --- |
| Cc1cccc(C)c1O | GABA-A receptor; alpha-1/beta-2/gamma-2 (Homo sapiens, UniProt P14867+P18507+P47870) | 3.90 |
| CCc1cccc(CC)c1N=C=O | GABA-A receptor; alpha-1/beta-2/gamma-2 (Homo sapiens, UniProt P14867+P18507+P47870) | 4.60 |
| CC(C)(C)c1cc(O)cc(C(C)(C)C)c1 | GABA-A receptor; alpha-1/beta-2/gamma-2 (Homo sapiens, UniProt P14867+P18507+P47870) | 4.00 |
| Oc1c(C2CCCCC2)cccc1C1CCCCC1 | GABA-A receptor; alpha-1/beta-2/gamma-2 (Homo sapiens, UniProt P14867+P18507+P47870) | 1.00 |
| Cc1cccc(C(C)(C)C)c1O | GABA-A receptor; alpha-1/beta-2/gamma-2 (Homo sapiens, UniProt P14867+P18507+P47870) | 6.30 |
| COc1cccc(OC)c1O | GABA-A receptor; alpha-1/beta-2/gamma-2 (Homo sapiens, UniProt P14867+P18507+P47870) | 1.00 |
| CC(C)c1cccc(C(C)C)c1O | GABA-A receptor; alpha-1/beta-2/gamma-2 (Homo sapiens, UniProt P14867+P18507+P47870) | 5.70 |
| CCc1cccc(CC)c1Br | GABA-A receptor; alpha-1/beta-2/gamma-2 (Homo sapiens, UniProt P14867+P18507+P47870) | 4.70 |

----------
target: GABA-A receptor; alpha-1/beta-2/gamma-2 (Homo sapiens, UniProt P14867+P18507+P47870); assay: Potentiation of GABA responses at human Gamma-aminobutyric acid A receptor alpha-1-beta-2-gamma-2; assay type: protein-complex assay
# EC50 annotations

| entry-smiles | EC50, µM |
| --- | --- |
| Oc1ccccc1 | 1000 |
| CC(C)c1cc(I)cc(C(C)C)c1O | 10 |
| CCc1cccc(CC)c1O | 12.6 |
| CCc1cccc(CC)c1N=C=S | 15.8 |
| CC(C)c1cc(O)c(O)c(C(C)C)c1 | 39.8 |
| Oc1ccccc1C1CCCC1 | 100000 |
| CC(C)c1ccccc1O | 39.8 |
| CC(C)Cc1cccc(CC(C)C)c1O | 2.51 |
